measured_on: human TLR7 (Homo sapiens (Human))
test_name: TLR7 inhibition reporter assay (HEK-Blue SEAP)
Type: cell-based
run_parameters: HEK-Blue human TLR7 cells, gardiquimod 7.5 μM
pIC50: −log10 of the molar value.
property_name: pIC50

Use these answered entries as a reference point.
INSERT INTO results (molecule, measured_on, property_name, value_measured) VALUES
  ('Cc1c(-c2[nH]c3ccc(N4CCN(C(=O)CN5CC(C)(C)C5)CC4)nc3c2C(C)C)cn2ncnc2c1C', 'human TLR7 (Homo sapiens (Human))', 'pIC50', 8.64),
  ('Cc1c(-c2[nH]c3ccc(N4CCN[C@H](CO)C4)nc3c2C(C)C)cn2ncnc2c1C [Example 994]', 'human TLR7 (Homo sapiens (Human))', 'pIC50', 7.89);

(I) Cc1c(-c2[nH]c3ccc(C4CCC(N5CC(C)(O)C5)CC4)nc3c2C(C)C)cn2ncnc2c1C (stereo not shown) [Example 1044]
(II) Cc1c(-c2[nH]c3ccc(N4CCN(C(=O)CN(C)CCO)CC4)nc3c2C(C)C)cn2ncnc2c1C
Of the pair I and II , name the member with the lesser recorded pIC50. Bench note: the answer is the label of the chosen record.
I
(I: 8.39, II: 8.89)

###

measured_on: human TLR7 (Homo sapiens (Human), UniProt Q9NYK1)
Sequence (Q9NYK1 27-1049): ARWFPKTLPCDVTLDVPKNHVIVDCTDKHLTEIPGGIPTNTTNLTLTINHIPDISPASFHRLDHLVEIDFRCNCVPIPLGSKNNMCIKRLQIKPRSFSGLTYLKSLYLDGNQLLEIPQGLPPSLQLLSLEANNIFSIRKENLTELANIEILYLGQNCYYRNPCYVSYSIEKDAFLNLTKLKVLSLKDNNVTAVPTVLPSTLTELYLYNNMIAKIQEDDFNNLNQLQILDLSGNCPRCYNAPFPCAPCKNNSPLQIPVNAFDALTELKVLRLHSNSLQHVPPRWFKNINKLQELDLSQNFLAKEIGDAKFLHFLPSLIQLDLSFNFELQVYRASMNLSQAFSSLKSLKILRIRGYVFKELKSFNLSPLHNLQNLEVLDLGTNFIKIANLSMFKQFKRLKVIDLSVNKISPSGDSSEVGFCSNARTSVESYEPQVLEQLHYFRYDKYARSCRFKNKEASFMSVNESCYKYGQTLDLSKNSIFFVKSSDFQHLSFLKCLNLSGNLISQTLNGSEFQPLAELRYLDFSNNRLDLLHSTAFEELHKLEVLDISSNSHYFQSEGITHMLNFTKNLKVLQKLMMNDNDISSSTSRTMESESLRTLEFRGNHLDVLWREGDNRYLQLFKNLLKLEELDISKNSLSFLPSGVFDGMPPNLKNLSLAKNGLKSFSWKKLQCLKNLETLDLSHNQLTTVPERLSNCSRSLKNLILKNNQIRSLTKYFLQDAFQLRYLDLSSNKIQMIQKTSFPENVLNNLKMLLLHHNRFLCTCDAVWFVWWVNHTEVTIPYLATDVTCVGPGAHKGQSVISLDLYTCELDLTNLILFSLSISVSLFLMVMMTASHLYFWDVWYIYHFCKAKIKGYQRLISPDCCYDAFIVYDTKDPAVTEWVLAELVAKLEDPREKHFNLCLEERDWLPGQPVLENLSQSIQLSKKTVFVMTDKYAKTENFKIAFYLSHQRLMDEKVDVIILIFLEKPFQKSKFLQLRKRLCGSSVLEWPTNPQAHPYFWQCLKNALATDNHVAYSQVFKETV
test_name: TLR7 inhibition reporter assay (HEK-Blue SEAP)
Format: cell-based
run_parameters: HEK-Blue cells overexpressing human TLR7, SEAP reporter, gardiquimod 7.5 μM
property_name: IC50 (nM)

Consider the reported IC50 for these compounds:
INSERT INTO results (compound, value_measured) VALUES
  ('COc1cc(-c2[nH]c3cc(C)c(C4CCN(C5COC5)CC4)nc3c2C(C)C)cn2ncnc12', 0.39),
  ('Cc1c(-c2[nH]c3ccc(CCC4CN(C5COC5)C4)nc3c2C(C)C)cn2ncnc2c1C [Example 687]', 39);

(a) CNC(=O)CN1CCC(c2ccc3[nH]c(-c4cn(C)c(=O)c(Cl)c4C)c(C(C)C)c3n2)CC1
(b) Cc1c(-c2[nH]c3ccc(C4CCC(NCC(=O)NC(C)(C)C)CC4)nc3c2C(C)C)cn2ncnc2c1C (stereo not shown) [Example 489]
Out of a and b , name the one with the higher IC50. Answer = label.
b

(A) Cc1c(-c2[nH]c3ccc(C4CCC(NC5(C)COC5)CC4)nc3c2C(C)C)cn2ncnc2c1C (stereo not shown) [Example 473]
(B) Cc1cc(-c2[nH]c3ccc(C4CCN(CC(=O)N(C)C)CC4)nc3c2C(C)C)cn2ncnc12
// compare: A vs B , metric IC50, want the smaller Reply with the label of the item you choose.
B

###

measured_on: human TLR9 (Homo sapiens (Human), UniProt Q9NR96)
Sequence (Q9NR96 26-1032): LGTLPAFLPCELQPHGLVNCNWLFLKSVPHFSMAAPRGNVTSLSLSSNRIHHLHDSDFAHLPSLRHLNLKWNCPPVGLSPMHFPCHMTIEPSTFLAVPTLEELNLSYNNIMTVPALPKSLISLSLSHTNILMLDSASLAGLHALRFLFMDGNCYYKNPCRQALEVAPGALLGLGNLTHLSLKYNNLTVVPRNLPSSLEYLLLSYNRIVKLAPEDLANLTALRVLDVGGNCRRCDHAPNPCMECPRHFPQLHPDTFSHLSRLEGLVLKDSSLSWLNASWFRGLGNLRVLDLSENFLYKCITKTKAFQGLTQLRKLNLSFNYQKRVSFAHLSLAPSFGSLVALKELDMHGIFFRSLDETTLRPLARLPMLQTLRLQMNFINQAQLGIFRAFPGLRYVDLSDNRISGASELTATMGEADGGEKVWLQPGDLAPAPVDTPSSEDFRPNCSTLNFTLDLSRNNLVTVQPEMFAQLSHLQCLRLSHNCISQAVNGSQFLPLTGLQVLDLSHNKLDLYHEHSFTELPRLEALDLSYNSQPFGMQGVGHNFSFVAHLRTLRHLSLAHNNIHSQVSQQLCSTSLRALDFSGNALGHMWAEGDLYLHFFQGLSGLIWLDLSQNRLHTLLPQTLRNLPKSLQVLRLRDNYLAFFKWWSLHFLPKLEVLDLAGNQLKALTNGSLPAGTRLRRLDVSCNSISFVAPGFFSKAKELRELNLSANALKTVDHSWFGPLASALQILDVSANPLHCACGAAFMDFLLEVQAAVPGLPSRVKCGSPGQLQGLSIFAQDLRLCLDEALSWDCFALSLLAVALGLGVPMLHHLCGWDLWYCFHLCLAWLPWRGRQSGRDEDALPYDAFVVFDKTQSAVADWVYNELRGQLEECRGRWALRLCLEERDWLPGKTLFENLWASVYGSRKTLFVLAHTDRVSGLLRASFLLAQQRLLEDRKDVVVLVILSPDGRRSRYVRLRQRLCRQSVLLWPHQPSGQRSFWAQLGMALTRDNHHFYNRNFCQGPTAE
test_name: TLR9 inhibition reporter assay (HEK-Blue SEAP);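 further: SEAP driven by an IFN-β minimal promoter with NF-κB and AP-1 sites, read after 22 h, compounds dosed 0.05 nM–50 µM, inhibition scaled between agonist plus DMSO and reference-inhibitor wells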
run_parameters: read-out: TLR9 IC50; HEK-Blue cells overexpressing human TLR9, ODN2006 5 nM stimulation, SEAP reporter
property_name: IC50 (µM)

INSERT INTO assay_data (compound, value_measured) VALUES
  ('COc1cc(-c2[nH]c3ccc(C4CCC(N(C)CC(=O)N(C)C)CC4)nc3c2C(C)C)cn2ncnc12 (stereo not shown) [Example 226]', 1.79);

(P) COc1cc(-c2[nH]c3ccc(C4CCC(NCC5(S(C)(=O)=O)CC5)CC4)nc3c2C(C)C)cn2ncnc12 (stereo not shown) [Example 219]
(Q) CC(C)c1c(-c2cn(CCS(C)(=O)=O)c3ncccc23)[nH]c2ccc(C3CCC(NCC(=O)N(C)C)CC3)nc12 (stereo not shown) [Example 261]
Of P and Q , whose reported IC50 is the larger number? Give the label under which the chosen entry appears.
P
